test: Solubility in spray-drying solvents (visually assessed); type: physicochemical; conditions: ethanol 100% with PVP K30, organic solvent or mixture, thermodynamic from solid; solubilised with PVP K30 in a ratio of 40/60 w/w; ethanol 100%; read-out: solubility of Fenretinide

MOLECULE | solubility
CC1=C(/C=C/C(C)=C/C=C/C(C)=C/C(=O)Nc2ccc(O)cc2)C(C)(C)CCC1 [Fenretinide, all-trans-N-(4-hydroxyphenyl) retinamide] | ~34 mg/mL

###

test: Solubility in spray-drying solvents (visually assessed); assay type: physicochemical; conditions: dichloromethane 100% with PVP K30, organic solvent or mixture, thermodynamic from solid; solubilised with PVP K30 in a ratio of 40/60 w/w; DCM 100%; read-out: solubility of Fenretinide

COMPOUND | solubility
CC1=C(/C=C/C(C)=C/C=C/C(C)=C/C(=O)Nc2ccc(O)cc2)C(C)(C)CCC1 [Fenretinide, all-trans-N-(4-hydroxyphenyl) retinamide] | > 50 mg/mL

###

assay: Solubility in spray-drying solvents (visually assessed); format: physicochemical; conditions: ethanol/dichloromethane 50/50 v/v with PVP K30, organic solvent or mixture, thermodynamic from solid; solubilised with PVP K30 in a ratio of 40/60 w/w; ethanol/DCM 50/50 v/v; read-out: solubility of Fenretinide

COMPOUND | solubility
CC1=C(/C=C/C(C)=C/C=C/C(C)=C/C(=O)Nc2ccc(O)cc2)C(C)(C)CCC1 [Fenretinide, all-trans-N-(4-hydroxyphenyl) retinamide] | > 50 mg/mL
